Below, each entry is listed alongside its reported composite z-score.
# Test system: Wnt5a (protein binding on small-molecule microarray)
# assay protocol: Wnt5a binders on small-molecule microarray, primary screen, biophysical, 635/667 nm fluorescence (AID 1142);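 also: fluorescence read at 667 nm with signal to noise per printed feature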
# setup conditions: 635 nm fluorescence, higher = more signal
// return just the number, without any unit appended

CCOC(=O)[C@H]1C/C=C/C[C@H](C(=O)OCC)C(=O)O[C@H]2[C@@H](OC)O[C@H](CO)[C@@H](OC(=O)Nc3ccc4c(c3)OCO4)[C@@H]2OC1=O    0.285
CC(C)N1C(=O)[C@@]2(c3ccc([N+](=O)[O-])cc3)CC(=O)N(CC34CC5CC(CC(C5)C3)C4)[C@@H]2c2ccc(CO)cc21    -0.61

So what composite z-score did COCCOC(=O)N1C(=O)[C@@]2(c3cc(C#CCC(C(=O)OC)C(=O)OC)ccc31)[C@H](c1ccccc1OCCO)N1[C@H](c3ccccc3)[C@H](c3ccccc3)OC(=O)[C@H]1[C@@H]2C(N)=O get with Wnt5a (protein binding on small-molecule microarray)?
0.53

So what composite z-score did COc1cc(C(O)C2C=CC3C(=O)N(c4ccccc4)C(=O)C3N2Nc2ccc(C#N)cc2)cc(OC)c1OC (stereo not given) get with Wnt5a (protein binding on small-molecule microarray)?
0.537

So what composite z-score did O=C(CS)NCCCCCCNC(=O)[C@H]1C[C@H]2C(=O)N3CCC[C@H]3C(=O)N2[C@H]1c1cccc(OCCO)c1 get with Wnt5a (protein binding on small-molecule microarray)?
0.35

So what composite z-score did O=C1O[C@@H](c2ccccc2)[C@@H](c2ccccc2)N2[C@@H](c3ccc(O)cc3)[C@]3(C(=O)Nc4ccc(C#CC5=CCCCC5)cc43)[C@@H](C(=O)O)[C@H]12 get with Wnt5a (protein binding on small-molecule microarray)?
0.942

So what composite z-score did COCCOC(=O)N1C(=O)[C@@]2(c3cc(C#CCC(C(=O)OC)C(=O)OC)ccc31)[C@H](C(=O)N1CCCCCCC1)[C@H]1C(=O)O[C@H](c3ccccc3)[C@H](c3ccccc3)N1[C@@H]2c1ccc(OCCO)cc1 get with Wnt5a (protein binding on small-molecule microarray)?
1.42

So what composite z-score did C=CCOC(=O)[C@H]1[C@@H]2C(=O)O[C@@H](c3ccccc3)[C@@H](c3ccccc3)N2[C@@H](c2ccc(OCCOC(=O)[C@@H]3C[C@@H]4C(=O)NCC(=O)N4[C@@H]3c3ccc(O)cc3)cc2)[C@]12C(=O)Nc1ccccc12 get with Wnt5a (protein binding on small-molecule microarray)?
0.773

So what composite z-score did COCCOC(=O)N1C(=O)[C@@]2(c3cc(C#Cc4ccc(OC)cc4)ccc31)[C@H](C(=O)N1CCN(c3ncccn3)CC1)[C@H]1C(=O)O[C@H](c3ccccc3)[C@H](c3ccccc3)N1[C@@H]2c1ccc(O)cc1 get with Wnt5a (protein binding on small-molecule microarray)?
-0.0081

* * *

# assay protocol: CREB reporter modulators without forskolin, primary screen, cell-based, PC12, CRE-LacZ reporter, unstimulated (AID 1145)
# setup conditions: no forskolin, luminescence, 4.5 h, called active from +8 up or from −8 down
Active and inactive are the calls of the source.
I would appreciate it if you answered using one of these outcomes: active, inactive

COC(=O)[C@@]1(Cc2ccccc2N=[N+]=[N-])COC(c2ccc(OCCCO)cc2)=N1    inactive

Next up:
Name the outcome recorded for CC(C)N1CC=CC23O[C@@H]4C=CCOC(=O)[C@@H]4[C@H]2C(=O)N(CCO)[C@@H]3C1=O (stereo partly drawn) in the assay.
inactive

* * *

# assay protocol: binders of probe aFGF10 on microarray, primary screen, stem cell growth factor project, biochemical, small-molecule microarray, fluorescence 635/667 (AID 1071);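 also: score merges 667 nm spot intensity and signal to noise from triplicate slides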
# setup conditions: higher = more signal
Below, each entry is listed alongside its reported composite z-score.
// return just the number, without any unit appended

Sample answers from the record:
[N-]=[N+]=NCc1ccccc1C[C@]1(C(=O)NCC(O)CO)N=C(c2ccc(OCCCO)cc2)O[C@H]1c1ccccc1N=[N+]=[N-] (stereo partly drawn)    0.77
CCCN1C(=O)[C@@]2(CCC(=O)OC(C)(C)C)N=C(c3ccc(OCCCO)cc3)O[C@H]2c2ccccc21    0.102

Fill blank: measured composite z-score of the molecule O=C1O[C@@H](c2ccccc2)[C@@H](c2ccccc2)N2[C@@H](c3ccc(O)cc3)[C@]3(C(=O)Nc4ccc(C#CC5=CCCCC5)cc43)[C@@H](C(=O)O)[C@H]12 is ____.
0.725

* * *

# assay protocol: small-molecule microarray binders of probe aDKK1, primary screen, biochemical, biotinylated probe, 635/667 nm fluorescence (AID 1099);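 also: score merges 667nm spot fluorescence with signal to noise across triplicate slides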
# setup conditions: higher = more signal
experimental endpoint: composite z-score
// return just the number, without any unit appended

Sample answers from the record:
NCCCCCNC(=O)[C@H]1C[C@H]2C(=O)NCC(=O)N2[C@H]1c1cccc(OCCO)c1    0.31
CC(C)=CCCC(C)=CC(O)C1C=CC2C(=O)N(c3ccccc3)C(=O)C2N1Nc1ccccc1 (centres undefined)    1.21
CC(c1ccccc1)C(O)C1C=CC2C(=O)NC(=O)C2N1Nc1ccccn1 (centres undefined)    0.0178
O=C1C2C=CC(C(O)c3ccc(B(O)O)cc3)N(Nc3ccccc3)C2C(=O)N1c1ccccc1 (centres undefined)    0.82
C=CCC(OC(C)=O)[C@@H]1[C@@H](N(Cc2ccc(-c3ccccc3)cc2)C(=O)Cc2ccc(F)cc2)c2cc(OCCCO)ccc2N1C(=O)c1ccc2ccccc2n1 (some centres undefined)    0.0021

Fill blank: measured composite z-score of the molecule O=c1oc(-c2ccccc2)nc2cc(Br)ccc12 is ____.
-0.184

* * *

# assay protocol: inhibitors of hydroxyurea-induced Chk1 phosphorylation, primary screen, imaging, HeLa, phospho-Chk1 antibody, percent positive cells (AID 1186)
# setup conditions: hydroxyurea-induced phospho-Chk1 immunofluorescence imaging, higher = more signal
Rule: z-score under -0.4 gives 0.0, otherwise 1.0.

Use the examples below as a reference point.
COCCOC(=O)N1C(=O)[C@@]2(c3cc(C#CCC(C(=O)OC)C(=O)OC)ccc31)[C@H](C(=O)N1CCN(c3ncccn3)CC1)[C@H]1C(=O)O[C@H](c3ccccc3)[C@H](c3ccccc3)N1[C@@H]2c1ccc(OCCO)cc1    0.0
Cc1ccc(S[C@]2(C(=O)NCCN3CCOCC3)CC(=O)N(Cc3cc(C(F)(F)F)cc(C(F)(F)F)c3)[C@@H]2c2ccc(CO)cc2I)cc1    1.0
O=C(NCc1ccccc1)[C@]1(CCS(=O)(=O)c2ccccc2)N=C(c2ccc(OCCCO)cc2)O[C@@H]1c1ccccc1    1.0
COC(=O)[C@@]1(Cc2ccc(OC)cc2)[C@H]2c3cc(C(=O)N4CCCC4)n(Cc4cc(F)cc5c4OCOC5)c3C[C@H]2CN1C(=O)c1ccccc1    1.0
Cc1c(NC(=O)CC#N)c(=O)n(-c2ccccc2)n1C    1.0

Next up:
For this compound, is measured z-score -0.4 or higher? COC(=O)[C@@]1(Cc2ccc(F)cc2)[C@H]2c3cc(C(=O)N4CCCC4)n(Cc4cccc5ccccc45)c3C[C@H]2CN1C(=O)c1ccccc1
0.0

* * *

# target desc: Fibroblast growth factor 2 (Homo sapiens)
# assay protocol: FGF2 binders on small-molecule microarrays, primary screen, biochemical, small-molecule microarray, 635/667 nm fluorescence (AID 1133)
# setup conditions: small-molecule microarray binding, FGF2, fluorescence 635/667; higher = more signal
Below, each entry is listed alongside its reported composite z-score.
// return just the number, without any unit appended

Sample answers from the record:
CCOC(=O)C1=C[C@@H](CC)N(S(=O)(=O)c2ccc(C)cc2)[C@H]1c1ccccc1    0.261
CCCN1C(=O)[C@]2(COC(c3ccc(OCCCO)cc3)=N2)Cc2ccccc21    1.26

Here is another compound to look at.
Fill blank: measured composite z-score of the compound O=C1OCCC=C[C@H]2OC34C=CCN(Cc5ccccc5)C(=O)[C@H]3N(CCCO)C(=O)[C@@H]4C12 (stereo partly drawn) is ____.
-0.349

* * *

Below, each entry is listed alongside its reported composite z-score.
# Tested on: wheat germ agglutinin (Triticum aestivum), Alexa647-labelled
# assay protocol: wheat germ agglutinin binders on compound microarrays, profiling panel, artefact control for SMM control-protein annotation, biochemical, small-molecule microarray, 635/667 nm fluorescence (AID 1140);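 also: score merges 667 nm feature emission with signal to noise over triplicate slides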
# setup conditions: WGA-A647 binding, 635 nm fluorescence, higher = more signal

Sample answers from the record:
CC(C)C(O)C1C=CC2C(=O)N(c3ccccc3)C(=O)C2N1Nc1ccc(C#N)cc1 (centres undefined)    1.12
COc1ccc(C(O)C2C=CC3C(=O)NC(=O)C3N2Nc2ccccn2)cc1OCc1ccccc1 (centres undefined)    0.532
CC(C)(C)OC(=O)CC[C@@]1(C(=O)O)N=C(c2ccc(OCCCO)cc2)O[C@@H]1c1ccccc1N=[N+]=[N-]    1.28

Fill blank: measured composite z-score of the molecule CCCC[C@@H]1C[C@H]1[C@@H](NC(=O)c1ccc(-c2ccccc2)cc1)c1ccc(-c2ccccc2)cc1 is ____.
0.249
